The reported measurements were obtained from patent US6423689B1.

Quick reference: melting point of the listed items.

Task: Answer with reported melting point of CCC(C)[C@H](NC(=O)N1CCCCCC1)C(=O)N[C@@H](Cc1ccc(OCc2ccccc2)cc1)C(=O)OC(C)(C)C (stereo partly shown)
Output: 53 to 57 °C

Task: Complete the entry with melting point for "CC(C)C[C@H](NC(=O)N1CCCCCC1)C(=O)N[C@@H](Cc1ccc(C=Cc2ccccc2)cc1)C(=O)NC(C)(C)C"
Output: 95 to 96 °C

Task: Given "COC(=O)[C@H](Cc1ccc(OCc2ccccc2)cc1)NC(=O)[C@H](CC(C)C)NC(=O)N1CCCCCC1" , respond with its melting point.
Output: 72 to 74 °C

Task: Read off the recorded melting point for "CC(C)C[C@H](NS(=O)(=O)N1CCCCCC1)C(=O)N[C@@H](Cc1ccc(OCc2ccccc2)cc1)C(=O)OC(C)(C)C"
Output: 123 to 124 °C

Task: Quick one: give measured melting point for "CC(C)C[C@H](NC(=O)N1CCCCCC1)C(=O)N[C@@H](Cc1ccc(CCCN2CCS(=O)(=O)CC2)cc1)C(=O)NC(C)(C)C"
Output: 92 to 93 °C

Task: Report measured melting point; entry is "CC(C)C[C@H](NC(=O)N1CCCCCC1)C(=O)N[C@@H](Cc1ccc(CCc2ccccc2)cc1)C(=O)NC(C)(C)C"
Output: 155 to 156 °C

Continuing:
Task: Indicate the recorded melting point value for this compound: "CC(C)C[C@H](NS(=O)(=O)N1CCOCC1)C(=O)N[C@@H](Cc1ccc(OCc2ccccc2)cc1)C(=O)OC(C)(C)C"
Output: 54 to 57 °C

Task: Identify melting point associated with the compound "COc1ccc(C[C@H](NC(=O)[C@H](CC(C)C)NC(=O)N2CCCCCC2)C(=O)OC(C)(C)C)cc1"
Output: 105 to 106 °C

Task: Please look at this compound and report its melting point: "CC(C)C[C@H](NC(=O)N1CCCCCC1)C(=O)N[C@@H](Cc1ccc(CCC(C)(C)C)cc1)C(=O)NC(C)(C)C"
Output: 180 to 181 °C

Task: Identify measured melting point corresponding to "CC(C)C[C@H](NC(=S)NC1CCCCC1)C(=O)N[C@@H](Cc1ccc(OCc2ccccc2)cc1)C(=O)OC(C)(C)C"
Output: 161 to 162 °C

Task: Please supply the value of reported melting point for the item "CC(C)C[C@H](NC(=O)N1CCCCCC1)C(=O)N[C@@H](Cc1ccc(CCC2(O)CCCCC2)cc1)C(=O)NC(C)(C)C"
Output: 101 to 102 °C

Task: Give the measured melting point for "CC(C)C[C@H](NC(=O)N1CCCCCC1)C(=O)N[C@@H](Cc1ccc(/C=C\C2CCCCC2)cc1)C(=O)NC(C)(C)C"
Output: 168 to 169 °C

Task: Please supply the value of reported melting point for the item "CC(C)C[C@H](NC(=O)N1CCN(c2ccccc2)CC1)C(=O)N[C@@H](Cc1ccc(OCc2ccccc2)cc1)C(=O)OC(C)(C)C"
Output: 67 to 69 °C
